# Tested on: mouse peritoneal macrophages
# Method: In vivo fluorescent labeling of macrophages in a mouse abdominal cavity
# Parameters: species or system Kunming mice
# Experimental context: labeled in vivo by intraperitoneal injection, cells extracted after 4 hours, Nucblue double-stain
# Protocol: Dilute 300 μL of 50 μM EK24 fluorescent probe solution with serum-free DMEM incomplete medium to obtain 1 mL of solution, then inject into the abdominal cavity of 5-8 weeks old Kunming mice. After 4 hours, inject 5 mL of 1×PBS and massage. After 10 minutes, sacrifice the mice by cervical vertebra dislocation. […] Observe under fluorescence microscope (light source 10%, exposure 200 ms, gain 5) after the suspended cells were settled down at the bottom of the plate. […]
No end group written: not given here. code X = not defined here
Assay readout: fluorescent labeling of macrophages extracted from the mouse abdominal cavity

Ask: Consider the substance shown here: X-DQPDPGAVAAAAILRTILEVLQSQGV ({code X}-DQPDPGAVAAAAILRTILEVLQSQGV; reading uncertain; also: N-terminal reporter X, nature not defined) [d-KV27, Dog Triokinase/FMN cyclase C-terminal peptide probe, X = reporter or cysteine/lysine + reporter] What is its recorded fluorescent labeling of macrophages extracted from the mouse abdominal cavity?
Result: can be labeled

Ask: Return reported fluorescent labeling of macrophages extracted from the mouse abdominal cavity; argument: EQPDPGAVAAAAILRAILEVLQS-Y (not fully specified (C-terminus)) [EK24, Human/rhesus Triokinase/FMN cyclase C-terminal peptide; Y is lysine plus rhodamine fluorescent labeling group on the lysine side chain]
Result: can be labeled

Ask: Entry under review: X-TKNMEAGAGRASYISSARLEQPDPGAVAAAAILRAILEVLQS ({code X}-TKNMEAGAGRASYISSARLEQPDPGAVAAAAILRAILEVLQS; reading uncertain; also: N-terminal reporter X, nature not defined) [TS42, Human Triokinase/FMN cyclase C-terminal peptide probe, X = reporter or cysteine/lysine + reporter] . Reported fluorescent labeling of macrophages extracted from the mouse abdominal cavity?
Result: can be labeled
